Cited source for all entries: patent US10857105B2

# runDescription: Chemical stability of lipids in ethanol at room temperature and 37° C. (lipid purity)
# Type: physicochemical
# conditionContext: 96 h, 25° C.
valueKind: Lipid Purity, t = 96 h, 25° C. (%)
Report the value in % with no unit label.

Lookup: I am curious: what Lipid Purity, t = 96 h, 25° C. value has been reported for CCCCC/C=C\C/C=C\CCCCCCCCN(CCO)CCCCCCCC(=O)OC(CCCCCCCC)CCCCCCCC ?
Found: 93.21

Lookup: I am curious: what Lipid Purity, t = 96 h, 25° C. value has been reported for CCCCCCCCCOC(=O)CCCN(CCO)CCCCCCCC(=O)OC(CCCCCCCC)CCCCCCCC ?
Found: 97.38

Lookup: I am curious: what Lipid Purity, t = 96 h, 25° C. value has been reported for CCCCCCCCCOC(=O)CCCCCCCN(CCO)CCCCCCCC(=O)OC(CCCCCCCC)CCCCCCCC ?
Found: 94.71

Lookup: I am curious: what Lipid Purity, t = 96 h, 25° C. value has been reported for CCCCCCCCC(CCCCCCCC)OC(=O)CCCCCCCN(CCO)CCCCCCCC(=O)OC(CCCCCCCC)CCCCCCCC ?
Found: 97.67

Lookup: I am curious: what Lipid Purity, t = 96 h, 25° C. value has been reported for CCCCCCCCCOC(=O)CCCCCCCN(CCO)CCCCCCCC(=O)OCCCCCCCCC ?
Found: 98.64

Lookup: I am curious: what Lipid Purity, t = 96 h, 25° C. value has been reported for CCCCCCCCCCCOC(=O)CCCCCN(CCO)CCCCCCCC(=O)OC(CCCCCCCC)CCCCCCCC ?
Found: 96.23

Lookup: I am curious: what Lipid Purity, t = 96 h, 25° C. value has been reported for CCCCC/C=C\C/C=C\CCCCCCCCN(CCO)CCCCCCCC(=O)OCCCCCCCCC ?
Found: 93.17

Lookup: I am curious: what Lipid Purity, t = 96 h, 25° C. value has been reported for CCCCCCCCCOC(=O)CCCCCCCN(CCCCCCCC(=O)OC(CCCCCCCC)CCCCCCCC)CCCNC(=O)C(C)(C)COC ?
Found: 95.15

Lookup: I am curious: what Lipid Purity, t = 96 h, 25° C. value has been reported for CCCCCCCCCOC(=O)CCCCCCCN(CCCCCCCC(=O)OC(CCCCCCCC)CCCCCCCC)CCN(C)C ?
Found: 92.07

====

# Test system: modified luciferase
# runDescription: Luciferase expression in liver, lung, spleen and femur 6 hours after intravenous administration to mice
# Format: in vivo
# conditionContext: lung, 6 hours after intravenous 0.5 mpk, mice
valueKind: Total Flux, Lung
// keep it numeric: no unit symbol after the value

Lookup: I am curious: what Total Flux, Lung value has been reported for CCCCCCCCCCCCN(CCO)CCCCCCCCCCCC(=O)OC [Compound 137] ?
Found: 1.66E+04

Lookup: I am curious: what Total Flux, Lung value has been reported for CCCCCCCCC(CCCCCCCC)OC(=O)CCCCCCCN(CCO)CCCC(=O)OCCCCC [Compound 52] ?
Found: 2.80E+06

Lookup: I am curious: what Total Flux, Lung value has been reported for CCCCCCCCCOC(=O)CCCCCCCN(CCCCCCCC(=O)OC(CCCCCCCC)CCCCCCCC)C(CO)CO [Compound 156] ?
Found: 1.92E+06

Lookup: I am curious: what Total Flux, Lung value has been reported for CCCCCCCCCOC(=O)CCCCCCCN(CCO)CCCCCCCC(=O)OC(CCC)CCCCCCCC (centres unmarked) [Compound 34] ?
Found: 9.49E+06

Lookup: I am curious: what Total Flux, Lung value has been reported for CCCCCCCCCOC(=O)CCCCCCCN(CCO)CCCCCCCCCC(CCCCCCCC)CCCCCCCC [Compound 153] ?
Found: 6.42E+06

Lookup: I am curious: what Total Flux, Lung value has been reported for CCCCCCCCC(CCCCCCCC)OC(=O)CCCCCCCN(CCO)CCCC(=O)OC(CCCCCC)CCCCCCCC (centres unmarked) [Compound 73] ?
Found: 6.17E+06

Lookup: I am curious: what Total Flux, Lung value has been reported for CCCCCCCCCOC(=O)CCCCCCCN(CCO)CCCCCCCC(=O)OC1CCC(CCCCC)CC1 (centres unmarked) [Compound 79] ?
Found: 6.13E+04

Lookup: I am curious: what Total Flux, Lung value has been reported for CCCCCCCCCOC(=O)CCCCCCCN(CCO)CCCCCCCC(=O)OC1CCC(C2CCCCC2)CC1 (centres unmarked) [Compound 80] ?
Found: 8.97E+04
